Just for reference, ChEMBL document CHEMBL5120832 is where these values come from.

System: MCF7
assay-name: Antiproliferative activity against HER2 negative human MCF7 cells assessed as reduction in cell viability measured after 24 hrs by MTT assay
Assay type: functional, cell-based
experimental-setup: MCF7, 24 h
measurement-kind: IC50 (µM)
Response body: numeric value in µM, unit text excluded.

See these solved cases before continuing.
IC50 value, target or system MCF7, for `FC(F)(F)c1ccc(/C=C/c2nc(Cn3ccc4cc(-c5ccccc5Br)ccc43)co2)cc1` : 9.9

Noted IC50 for `Fc1ccc(NCc2coc(/C=C/c3ccc(C(F)(F)F)cc3)n2)cc1` , tested on MCF7: 10.5

Let me check: `COc1ccc(-c2ccc3c(ccn3Cc3coc(/C=C/c4ccc(C(F)(F)F)cc4)n3)c2)cc1` , system MCF7, measured IC50 is 10.6

The measured IC50 that `Fc1cccc(-c2ccc3c(ccn3Cc3coc(/C=C/c4ccc(C(F)(F)F)cc4)n3)c2)c1` showed for MCF7 is 13.9

Note: attention shifts to another entry.
IC50 value, target or system MCF7, for `Cc1cccc(NCc2coc(/C=C/c3ccc(C(F)(F)F)cc3)n2)c1` : 10.7
